Every entry's value here was drawn from paper PMC7756583.

Target: HDAC6 (Homo sapiens, UniProt Q9UBN7)
Sequence (Q9UBN7 whole entry): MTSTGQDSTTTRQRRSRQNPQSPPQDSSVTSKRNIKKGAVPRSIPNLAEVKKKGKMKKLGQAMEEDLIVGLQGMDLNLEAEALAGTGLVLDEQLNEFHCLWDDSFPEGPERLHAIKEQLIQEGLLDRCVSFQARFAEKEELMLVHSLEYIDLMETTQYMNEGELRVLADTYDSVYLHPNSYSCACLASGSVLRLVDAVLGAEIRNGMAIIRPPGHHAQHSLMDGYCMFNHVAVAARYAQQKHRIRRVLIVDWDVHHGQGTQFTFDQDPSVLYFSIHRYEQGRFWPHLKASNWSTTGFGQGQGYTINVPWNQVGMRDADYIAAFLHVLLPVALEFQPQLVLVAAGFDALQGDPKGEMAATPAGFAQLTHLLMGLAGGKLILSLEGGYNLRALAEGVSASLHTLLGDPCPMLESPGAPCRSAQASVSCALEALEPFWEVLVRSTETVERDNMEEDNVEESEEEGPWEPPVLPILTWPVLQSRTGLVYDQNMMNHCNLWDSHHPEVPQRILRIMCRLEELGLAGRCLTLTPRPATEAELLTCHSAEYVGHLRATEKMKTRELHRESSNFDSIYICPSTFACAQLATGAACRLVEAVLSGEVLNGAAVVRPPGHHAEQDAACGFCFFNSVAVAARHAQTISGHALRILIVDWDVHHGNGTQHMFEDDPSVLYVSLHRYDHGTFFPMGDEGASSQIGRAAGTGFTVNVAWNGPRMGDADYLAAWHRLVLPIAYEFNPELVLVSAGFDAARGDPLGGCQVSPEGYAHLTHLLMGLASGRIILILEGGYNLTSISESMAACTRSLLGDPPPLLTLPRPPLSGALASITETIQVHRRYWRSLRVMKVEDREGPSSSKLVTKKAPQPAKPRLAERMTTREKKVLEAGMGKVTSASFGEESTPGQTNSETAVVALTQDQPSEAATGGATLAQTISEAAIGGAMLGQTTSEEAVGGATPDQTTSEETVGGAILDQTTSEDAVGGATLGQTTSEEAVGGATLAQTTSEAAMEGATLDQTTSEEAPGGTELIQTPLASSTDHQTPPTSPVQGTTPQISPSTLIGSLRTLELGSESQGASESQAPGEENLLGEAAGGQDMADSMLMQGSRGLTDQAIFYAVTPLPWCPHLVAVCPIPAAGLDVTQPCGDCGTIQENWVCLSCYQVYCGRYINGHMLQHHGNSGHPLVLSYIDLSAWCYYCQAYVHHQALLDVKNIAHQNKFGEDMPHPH
Test: In-vitro human HDAC6 fluorogenic inhibition assay (ZMAL substrate)
Assay type: biochemical
Measurement name: pIC50
Answers are plain numbers, as −log10 of the molar value.

Before answering, review these 5 worked examples.
Compound	Measurement name	Measured result
Cn1c(CCCCCCC(=O)NO)nc2cc(N(CCCl)CCCl)ccc21 [tinostamustine, reference compound]	pIC50	7.96
O=C(CCCCCCNC(=O)CCCc1ccc(N(CCCl)CCCl)cc1)NO [Compound 3 k]	pIC50	7.20
O=C(/C=C/c1ccc(CNC(=O)CCCc2ccc(N(CCCl)CCCl)cc2)cc1)NO [Compound 3 n]	pIC50	7.21
O=C(CCCNC(=O)CCCc1ccc(N(CCCl)CCCl)cc1)NO [Compound 3 f]	pIC50	5.34
O=C(CCCCCNC(=O)CCCc1ccc(N(CCCl)CCCl)cc1)NO [Compound 3 h]	pIC50	6.92

For the next question, use this compound.
In: Indicate its recorded pIC50; the compound in question is O=C(CCCc1ccc(N(CCCl)CCCl)cc1)NCc1ccc(C(=O)NO)cc1 [Compound 3 c]
Out: 7.49

###

Field: pIC50. Provide a value for each of the compounds that follow.
Target: human recombinant HDAC2 (Homo sapiens, UniProt Q92769)
Sequence (Q92769 whole entry): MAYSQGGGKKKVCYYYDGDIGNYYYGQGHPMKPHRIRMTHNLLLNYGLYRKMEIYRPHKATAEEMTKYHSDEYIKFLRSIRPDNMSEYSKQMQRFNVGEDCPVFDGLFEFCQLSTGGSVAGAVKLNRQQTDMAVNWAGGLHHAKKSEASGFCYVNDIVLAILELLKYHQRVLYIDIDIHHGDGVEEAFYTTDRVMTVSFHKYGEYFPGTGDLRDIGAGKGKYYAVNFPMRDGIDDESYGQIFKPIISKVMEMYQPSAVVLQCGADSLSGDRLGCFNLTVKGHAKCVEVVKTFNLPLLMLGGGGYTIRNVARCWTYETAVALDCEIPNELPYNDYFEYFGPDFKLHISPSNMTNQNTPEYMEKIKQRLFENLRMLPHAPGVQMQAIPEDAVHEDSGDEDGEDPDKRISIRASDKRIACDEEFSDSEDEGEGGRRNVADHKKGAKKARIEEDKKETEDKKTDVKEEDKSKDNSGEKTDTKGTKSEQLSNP
Test: In-vitro human HDAC2 fluorogenic inhibition assay (ZMAL substrate)
Type: biochemical
Details: n≥2, each in duplicate wells; read-out: HDAC Inhibition IC50 HDAC 2
Numbers only, as −log10 of the molar value.

Compound	Study target	pIC50
O=C(CCCCCCNC(=O)c1ccc(NC(=O)COCCOCCNC(=O)COc2cccc3c2C(=O)N(C2CCC(=O)NC2=O)C3=O)cc1)NO (centres unmarked) [PROTAC 4]	human recombinant HDAC2 (Homo sapiens, UniProt Q92769)	6.61

For the next question, use this compound.
In: Indicate its recorded pIC50; the compound in question is O=C(/C=C/c1ccc(CNC(=O)CCCc2ccccc2)cc1)NO [Compound 3 o]
Out: 6.71

###

Molecular target: HDAC8 recombinant enzyme (Homo sapiens)
Experiment: In-vitro human HDAC8 assay (Boc-Lys-(TFa)-AMC substrate)
Assay type: biochemical
Details: read-out: HDAC Inhibition IC50 HDAC 8
Measurement name: pIC50
Numbers only, as −log10 of the molar value.

In: Report the value of pIC50 obtained on HDAC8 recombinant enzyme (Homo sapiens) for O=C(CCCCCCNC(=O)c1ccc(NC(=O)COCCOCCNC(=O)COc2cccc3c2C(=O)N(C2CCC(=O)NC2=O)C3=O)cc1)NO (stereo not shown) .
Out: 5.47

###

Biological target: HDAC8 recombinant enzyme (Homo sapiens, UniProt Q9BY41)
Sequence (Q9BY41 whole entry): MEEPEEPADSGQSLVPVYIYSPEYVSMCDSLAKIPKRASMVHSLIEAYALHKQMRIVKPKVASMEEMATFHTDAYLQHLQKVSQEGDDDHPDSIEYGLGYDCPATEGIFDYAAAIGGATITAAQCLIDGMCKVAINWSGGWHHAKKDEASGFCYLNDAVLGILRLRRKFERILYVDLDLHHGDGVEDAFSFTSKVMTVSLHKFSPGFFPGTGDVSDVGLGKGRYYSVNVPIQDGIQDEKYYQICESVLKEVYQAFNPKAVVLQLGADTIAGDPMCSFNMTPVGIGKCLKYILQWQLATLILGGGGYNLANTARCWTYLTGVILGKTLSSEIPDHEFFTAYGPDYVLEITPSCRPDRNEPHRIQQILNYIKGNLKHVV
Assay: In-vitro human HDAC8 assay (Boc-Lys-(TFa)-AMC substrate)
Format: biochemical
Measurement name: pIC50
One number for each entry, as −log10 of the molar value.

In: Indicate its recorded pIC50; the molecule in question is O=C(/C=C/c1ccc(CNC(=O)CCCc2ccc(N(CCCl)CCCl)cc2)cc1)NO
Out: 5.39

###

Molecular target: HDAC6 (Homo sapiens)
Test: In-vitro human HDAC6 fluorogenic inhibition assay (ZMAL substrate)
Type: biochemical
Conditions: fluorogenic assay; n≥2, each in duplicate wells; read-out: Target Inhibition IC50 HDAC6
Field: IC50. Provide a value for each of the compounds that follow.
Answers are plain numbers, in µM.

Before answering, review these 2 worked examples.
Compound	Study target	Unit of measurement	Measured result
O=C(CCCNC(=O)c1ncn2c(=O)n(CCCl)nnc12)NO [Compound 3 e]	HDAC6 (Homo sapiens)	µM	2.37
Cn1nnc2c(C(=O)NCCCCCCC(=O)NO)ncn2c1=O [Compound 3 i]	HDAC6 (Homo sapiens)	µM	0.031

For the next question, use this compound.
In: Indicate its recorded IC50; the compound in question is Cn1nnc2c(C(=O)NCCCC(=O)NO)ncn2c1=O [Compound 3 d]
Out: 4.99
